# Test system: E. coli ST131
# TEST_CONDITIONS: MIC of rifampicin combined with the labelled peptidomimetic
Exercise: state measured Antibiotic MIC in combination (RIF) for each of the compounds provided.
Please append the unit to your numeric answer.

{"SAMPLE_SMILES": "CC(=O)N[C@@H](CCCCN)C(=O)N(CCC(=O)N[C@@H](CCCCN)C(=O)N(CCC(=O)N[C@@H](CCCCN)C(=O)N(CCC(=O)N[C@@H](CCCCN)C(=O)N(CCC(=O)N[C@@H](CCCCN)C(=O)N(CCC(=O)N[C@@H](CCCCN)C(=O)N(CCC(=O)N[C@@H](CCCCN)C(=O)N(CCC(=O)N[C@@H](CCCCN)C(=O)N(CCC(N)=O)Cc1ccccc1)Cc1ccccc1)Cc1ccccc1)Cc1ccccc1)Cc1ccccc1)Cc1ccccc1)Cc1ccccc1)Cc1ccccc1", "Antibiotic MIC in combination (RIF)": "0.5 µg/mL"}

Please look at the following compound next.
Lab book: Antibiotic MIC in combination (RIF) of `C[C@@H](c1ccccc1)N(CCC(N)=O)C(=O)[C@H](CCCCNC(=N)N)NC(=O)CCN(C(=O)[C@H](CCCCN)NC(=O)CCN(C(=O)[C@H](CCCCNC(=N)N)NC(=O)CCN(C(=O)[C@H](CCCCN)NC(=O)CCN(C(=O)[C@H](CCCCNC(=N)N)NC(=O)CCN(C(=O)[C@H](CCCCN)NC(=O)CNCCN)[C@@H](C)c1ccccc1)[C@@H](C)c1ccccc1)[C@@H](C)c1ccccc1)[C@@H](C)c1ccccc1)[C@@H](C)c1ccccc1` noted as 0.5 µg/mL

Entry source: paper PMC6615261
